# Tested on: ABUTH (Velvetleaf)
# experiment-description: Preemergence herbicidal evaluation
# Format: in vivo, Abutilon theophrasti
# condition-info: rate 0.0313 kg/ha; rated 4-5 weeks after treatment
measurement-type: Preemergence herbicidal rating ABUTH

molecule	Preemergence herbicidal rating ABUTH
C=CCN1C(=O)C(CC(=O)O)SC1=Nc1cc(-n2c(=O)cc(C(F)(F)F)n(C)c2=O)c(F)cc1Cl (centres unmarked) [Compound 62]	7.0
C=CCN1C(=O)C(CC(=O)OC(C)C)SC1=Nc1cc(-n2c(=O)cc(C(F)(F)F)n(C)c2=O)c(F)cc1Cl (centres unmarked) [Compound 66]	8.0
CCOC(=O)CN1C(=O)C(CC(=O)OCc2ccccc2)OC1=Nc1cc(-n2c(=O)cc(C(F)(F)F)n(C)c2=O)c(F)cc1Cl (centres unmarked) [Compound 40]	0.0
Cn1c(C(F)(F)F)cc(=O)n(-c2cc(N=C3SCC(=O)N3CC(=O)OCC#N)c(Cl)cc2F)c1=O [Compound 109]	9.0
CCOC(=O)CN1C(=O)C(SC)SC1=Nc1cc(-n2c(=O)cc(C(F)(F)F)n(C)c2=O)c(F)cc1Cl (centres unmarked) [Compound 125]	2.0
CCOC(=O)CN1C(=O)C(CC(=O)NS(=O)(=O)C(C)C)SC1=Nc1cc(-n2c(=O)cc(C(F)(F)F)n(C)c2=O)c(F)cc1Cl (centres unmarked) [Compound 117]	0.0
Cn1c(C(F)(F)F)cc(=O)n(-c2cc(N=C3SCC(=O)N3CC(=O)OCC3CC3)c(Cl)cc2F)c1=O [Compound 124]	0.0

// next entry
[ask] Answer with reported Preemergence herbicidal rating ABUTH of COC(=O)[C@H](Cc1ccccc1)N1C(=O)CS/C1=N/c1cc(-n2c(=O)cc(C(F)(F)F)n(C)c2=O)c(F)cc1Cl [Compound 72]
[reply] 9.0

###

# Tested on: IPOHE (Morningglory, Ivyleaf)
# experiment-description: Postemergence herbicidal evaluation
# Type: in vivo, Ipomoea hederacea
# condition-info: postemergence, rate 0.0313 kg/ha
# Protocol: In the tests, seedling plants are grown in jiffy flats for about two weeks. The test compounds are dispersed in 50/50 acetone/water mixtures containing 0.5% TWEEN®20, a polyoxyethylene sorbitan monolaurate surfactant of Atlas Chemical Industries, in sufficient quantities to provide the equivalent of about 0.0156 kg to 0.500 kg per hectare of active compound when applied to the plants through a spray nozzle operating at 40 psi for a predetermined time. […]
measurement-type: IPOHE herbicidal rating
One number for each entry.

Examples with their reported IPOHE herbicidal rating follow.
> print(dat)
                                   compound  endpoint.value
1  CCOC(=O)CN1C(=O)C(C)SC1=Nc1cc(-n2c(=O)cc(C(F)(F)F)n(C)c2=O)c(F)cc1Cl (centres unmarked)             9.0
2  CCC1SC(=Nc2cc(-n3c(=O)cc(C(F)(F)F)n(C)c3=O)c(F)cc2Cl)N(C)C1=O (centres unmarked)             7.0
3  C=CCN1C(=O)C(CC(=O)NOC)SC1=Nc1cc(-n2c(=O)cc(C(F)(F)F)n(C)c2=O)c(F)cc1Cl (centres unmarked)             9.0
4  CCOC(=O)CN1C(=O)C(CC(=O)OC(C)C(=O)OCC)S/C1=N/c1cc(-n2c(=O)cc(C(F)(F)F)n(C)c2=O)c(F)cc1Cl (centres unmarked)             9.0

// next entry
[ask] Given `COC(=O)CN1C(=O)CSC1=Nc1cc(-n2c(=O)cc(C(F)(F)F)n(C)c2=O)c(F)cc1Cl` , report its IPOHE herbicidal rating on IPOHE (Morningglory, Ivyleaf).
[reply] 8.5
